# experiment description: A CellTox Green Cytotoxicity Assay to monitor cytotoxicity in HepG2 cells - 8 hour (AID 1224890); also: nearly all actives have a fitted effect of over 45% in size
# condition notes: CellTox Green fluorescence; series mostly up to 76.8 µM
Results filed as inconclusive are left out. Active and inactive are the calls of the source. Calls follow the shape of the dose curve; as a rule, active = well fitted activation curve with a large enough effect in the repeat runs; inconclusive = weak or mixed curves; inactive = flat fitted curve, though single readings scatter.
Outcomes you can answer with include only these: active, inactive

Some solved entries appear below for comparison.
1. N=C1N=C(N)c2ccccc21 ... inactive
2. CCOc1ccc2nc3cc(N)ccc3c(N)c2c1 ... inactive
3. Nc1cc(C(F)(F)F)ccc1S ... inactive

QUERY: I would be grateful if you could indicate the recorded call for `CC(C)(C)NC(=O)[C@@H]1C[C@@H]2CCCC[C@@H]2CN1C[C@@H](O)[C@H](Cc1ccccc1)NC(=O)[C@H](CC(N)=O)NC(=O)c1ccc2ccccc2n1` .
RESULT: inactive

QUERY: I would be grateful if you could indicate the recorded call for `CCCCCCCC(=O)[O-].CCCCCCCC(=O)[O-].[Zn+2]` .
RESULT: inactive

QUERY: I would be grateful if you could indicate the recorded call for `CCN(CCC#N)c1ccc(N=Nc2c(Cl)cc([N+](=O)[O-])cc2Cl)cc1` .
RESULT: inactive

QUERY: I would be grateful if you could indicate the recorded call for `C/C=C1/C(=O)C[C@H]2[C@@H]3CCC4=CC(=O)CC[C@]4(C)[C@H]3CC[C@]12C` .
RESULT: inactive

QUERY: I would be grateful if you could indicate the recorded call for COC(=O)C1=C(C)NC(C)=C(C(=O)OCC(C)C)C1c1ccccc1[N+](=O)[O-] (configuration not stated) .
RESULT: inactive

QUERY: I would be grateful if you could indicate the recorded call for `NNc1nc(-c2ccc([N+](=O)[O-])cc2)cs1` .
RESULT: inactive

QUERY: I would be grateful if you could indicate the recorded call for `O=Cc1cc(O)ccc1Br` .
RESULT: inactive

* * *

# experiment description: A CellTox Green Cytotoxicity Assay to monitor cytotoxicity in HepG2 cells - 8 hour (AID 1224890); also: nearly all actives have a fitted effect of over 45% in size
# condition notes: CellTox Green fluorescence; series mostly up to 76.8 µM
Records with an inconclusive call do not appear. The source made the active and inactive calls. Calls come from the whole dose curve; as a rule, active = well fitted activation curve with a large enough effect in the repeat runs; inconclusive = weak or mixed curves; inactive = flat fitted curve, though single readings scatter.
Outcomes you can answer with include only these: active, inactive

QUERY: I would be grateful if you could indicate the recorded call for `CC(C)(C)CC(C)(C)c1ccc(OCCOCC[N+](C)(C)Cc2ccccc2)cc1` .
RESULT: active

QUERY: I would be grateful if you could indicate the recorded call for `CN(C)[C@@H]1C(=O)C(C(N)=O)=C(O)[C@@]2(O)C(=O)C3=C(O)c4c(O)cccc4C[C@H]3C[C@@H]12` .
RESULT: inactive

QUERY: I would be grateful if you could indicate the recorded call for `O=C(NO)C1(NS(=O)(=O)c2ccc(Oc3ccc(F)cc3)cc2)CCOCC1` .
RESULT: inactive

QUERY: I would be grateful if you could indicate the recorded call for `CCOC(=O)c1nc(C(Cl)(Cl)Cl)n(-c2ccc(Cl)cc2Cl)n1` .
RESULT: inactive

QUERY: I would be grateful if you could indicate the recorded call for `CSc1cnc(C)cn1` .
RESULT: active

QUERY: I would be grateful if you could indicate the recorded call for `O=C(Oc1cccc2cccnc12)c1ccccc1` .
RESULT: inactive

QUERY: I would be grateful if you could indicate the recorded call for `CCCCCCCC[P+](CCCCCCCC)(CCCCCCCC)CCCCCCCC` .
RESULT: active

QUERY: I would be grateful if you could indicate the recorded call for CCCCC(CC)CN=C(N)NC(N)=NCCCCCCN=C(N)NC(N)=NCC(CC)CCCC (stereo not given) .
RESULT: active

QUERY: I would be grateful if you could indicate the recorded call for `CC[C@H]1O[C@]2(CC[C@@H]1C)C[C@@H]1C[C@@H](C/C=C(\C)C[C@@H](C)/C=C/C=C3\CO[C@@H]4[C@H](O)C(C)=C[C@@H](C(=O)O1)[C@]34O)O2` .
RESULT: active

QUERY: I would be grateful if you could indicate the recorded call for `COc1cc(-c2ccc(N=C=O)c(OC)c2)ccc1N=C=O` .
RESULT: inactive

* * *

# target system: Luciferin 4-monooxygenase (Photinus pyralis)
# experiment description: qHTS assay to identify small molecule inhibitors of firefly luciferase (AID 1224835); also: nearly all actives have a fitted effect of over 25% in size
# condition notes: purified P. pyralis luciferase, luminescence inhibition; series mostly up to 115 µM
Inconclusive results are not listed. Active and inactive are the calls of the source. The call rests on the fitted dose curve; in most records, active means well fitted inhibition curve with a large enough effect in the repeat runs; inconclusive means weak or mixed curves; inactive means flat fitted curve, though single readings scatter.
Outcomes you can answer with include only these: active, inactive

1. O=C(c1ccc(F)cc1)C1CCN(CCn2c(=O)[nH]c3ccccc3c2=O)CC1 ... inactive
2. N/C(=N\N=C\c1ccc(Cl)cc1)N/N=C/c1ccc(Cl)cc1 ... active
3. [Cl][Bi]([Cl])([c]1ccccc1)([c]1ccccc1)[c]1ccccc1 ... active
4. COc1c(C)c2c(c(O)c1C/C=C(\C)CCC(=O)O)C(=O)OC2 ... inactive
5. CCCCCCCCCCCC(=O)NCCCN(C)C ... inactive

QUERY: I would be grateful if you could indicate the recorded call for `Cc1cccc2c1cc1ccc3cccc4ccc2c1c34` .
RESULT: inactive

QUERY: I would be grateful if you could indicate the recorded call for `Cc1ccc(O)c(C(C)(C)C)c1` .
RESULT: inactive

QUERY: I would be grateful if you could indicate the recorded call for `N=C1N=C(N)c2cc3ccccc3cc21` .
RESULT: inactive

QUERY: I would be grateful if you could indicate the recorded call for Cc1nc(-c2ccc3c(c2)CCN(CCC2CCC(NC(=O)/C=C/c4ccc(F)cc4)CC2)CC3)no1 (centres undefined) .
RESULT: inactive

* * *

# target system: Nuclear receptor subfamily 1 group I member 3 (Homo sapiens)
# experiment description: qHTS assay to identify small molecule antagonists of the constitutive androstane receptor (CAR) signaling pathway (AID 1224838);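 also: HepG2 cells stably expressing hCAR with CYP2B6 luciferase reporter stimulated by CITCO; % is scaled to controls: 0 for no effect and ±100 for the full control effect; nearly all actives have a fitted effect of over 40% in size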
# condition notes: HepG2-CYP2B6-hCAR luciferase, CITCO-stimulated, 24 h; series mostly up to 92.4 µM
Inconclusive results are not listed. The source made the active and inactive calls. The call rests on the fitted dose curve; in most records, active means well fitted inhibition curve with a large enough effect in the repeat runs; inconclusive means weak or mixed curves, or effect the other way; inactive means no such curve, though single readings can be large or run the other way.
Outcomes you can answer with include only these: active, inactive

Some solved entries appear below for comparison.
1) Cc1c(C)c2c(c(C)c1O)CCC(C)(COc1ccc(CC3SC(=O)NC3=O)cc1)O2 (stereo not drawn) ... inactive
2) N#CC1(c2ccc(F)cc2)CCC(=O)CC1 ... inactive
3) NC(=O)CC[C@@H]1NC(=O)[C@H](Cc2ccccc2)NC(=O)[C@H](Cc2ccc(O)cc2)NC(=O)CCSSC[C@@H](C(=O)N2CCC[C@H]2C(=O)N[C@@H](CCCN=C(N)N)C(=O)NCC(N)=O)NC(=O)[C@H](CC(N)=O)NC1=O ... inactive
4) C[C@H]1[C@H]2CC[C@H]3[C@@H]4CC=C5C[C@@H](N(C)C)CC[C@]5(C)[C@H]4CC[C@]23CN1C ... inactive

QUERY: I would be grateful if you could indicate the recorded call for CCCN(CCC)C(=O)C(CCC(=O)OCCCN1CCN(CCOC(=O)Cc2c(C)n(C(=O)c3ccc(Cl)cc3)c3ccc(OC)cc23)CC1)NC(=O)c1ccccc1 (stereo not drawn) .
RESULT: inactive

QUERY: I would be grateful if you could indicate the recorded call for `O=c1cc(-c2ccc(O)cc2)oc2cc(O)cc(O)c12` .
RESULT: inactive

* * *

# target system: Estrogen receptor (Homo sapiens) (UniProt P03372)
# Sequence (P03372 whole entry, looked up): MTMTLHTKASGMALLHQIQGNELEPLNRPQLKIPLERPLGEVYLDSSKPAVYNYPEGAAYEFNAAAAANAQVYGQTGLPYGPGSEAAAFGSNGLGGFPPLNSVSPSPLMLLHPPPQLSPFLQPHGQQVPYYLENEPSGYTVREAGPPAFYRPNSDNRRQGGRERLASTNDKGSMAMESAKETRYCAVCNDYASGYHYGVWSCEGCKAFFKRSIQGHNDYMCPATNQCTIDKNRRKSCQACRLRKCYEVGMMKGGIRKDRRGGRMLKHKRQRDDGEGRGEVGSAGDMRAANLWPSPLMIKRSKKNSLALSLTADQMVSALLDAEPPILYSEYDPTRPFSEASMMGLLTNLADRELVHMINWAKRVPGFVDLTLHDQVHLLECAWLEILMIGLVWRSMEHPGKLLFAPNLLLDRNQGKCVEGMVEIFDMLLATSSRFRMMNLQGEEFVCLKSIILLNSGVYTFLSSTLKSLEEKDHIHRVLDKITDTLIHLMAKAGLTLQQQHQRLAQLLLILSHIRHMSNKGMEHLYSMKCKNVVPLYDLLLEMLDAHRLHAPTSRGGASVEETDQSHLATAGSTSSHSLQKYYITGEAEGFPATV
# experiment description: qHTS assay to identify small molecule agonists of the estrogen receptor alpha (ER-alpha) signaling pathway using the BG1 cell line (AID 743079); also: % is scaled to controls: 0 for no effect and ±100 for the full control effect; nearly all actives have a fitted effect of over 20% in size
# condition notes: BG1Luc4E2 cells, ERE-luciferase agonist, 22 h; at 70.3 µM (top of the series)
Inconclusive results are not listed.
quantity measured: activation (%)
Give bare numbers, in %.

1) N=C1N=C(N)c2ccccc21 ... 3.41

Would you be so kind as to report activation for each listed record?
1. CC(C)(C)C(=O)OCOC(=O)C1N2C(=O)CC2S(=O)(=O)C1(C)C (stereo not given)
2. O=C(Oc1ccccc1)c1ccccc1C(=O)Oc1ccccc1
3. CSc1ccc2c(c1)C(N1CCN(C)CC1)Cc1ccccc1S2 (stereo not given)
4. CC(C)C(C)(C)C(C)(C)C(C)(C)S
5. O=c1[nH]cnc2nc[nH]c12

RESULT:
1: -1.04; 2: -7.29; 3: -16.2; 4: 4.61; 5: 8.82

* * *

# experiment description: Caspase-3/7 induction in HepG2 cells by small molecules, qHTS assay (AID 1346978); also: % is scaled to controls: 0 for no effect and ±100 for the full control effect; nearly all actives have a fitted effect of over 15% in size
# condition notes: HepG2 caspase-3/7 activation, Caspase-Glo luminescence, 17 h; series mostly up to 92.4 µM
Results filed as inconclusive are left out. Active and inactive are the calls of the source. The call rests on the fitted dose curve; in most records, active means well fitted activation curve with a large enough effect in the repeat runs; inconclusive means weak or mixed curves; inactive means flat fitted curve, though single readings scatter.
quantity measured: outcome

1. CCCCCCCC(=O)[O-].CCCCCCCC(=O)[O-].[Zn+2] ... inactive
2. NC(=NCCCCCCN=C(N)/N=C(\N)Nc1ccc(Cl)cc1)/N=C(\N)Nc1ccc(Cl)cc1 ... inactive
3. CCCC/C=C/CCCCO ... inactive
